Quick list: Response per entry.
Target: B.1.351 Spike (SARS-CoV-2 spike protein, South African variant B.1.351) (SARS-CoV-2)
The answer should be a number; do not append a unit.

Consider the reported Response for these binders:
Ab 29 scFv-Fc (scFv, V domains shown) VH: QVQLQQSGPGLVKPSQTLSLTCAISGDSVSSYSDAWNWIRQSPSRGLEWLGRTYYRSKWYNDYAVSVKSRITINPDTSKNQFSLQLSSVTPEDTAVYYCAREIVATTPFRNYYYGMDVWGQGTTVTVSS VL: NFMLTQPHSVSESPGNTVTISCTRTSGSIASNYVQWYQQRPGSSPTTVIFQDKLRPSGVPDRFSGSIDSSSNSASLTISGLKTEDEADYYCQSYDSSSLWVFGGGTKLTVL	0.0418
Ab 30 scFv-Fc (scFv, V domains shown) VH: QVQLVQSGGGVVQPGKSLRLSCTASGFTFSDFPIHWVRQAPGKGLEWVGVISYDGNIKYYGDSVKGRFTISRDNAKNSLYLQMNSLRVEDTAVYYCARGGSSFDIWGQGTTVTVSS VL: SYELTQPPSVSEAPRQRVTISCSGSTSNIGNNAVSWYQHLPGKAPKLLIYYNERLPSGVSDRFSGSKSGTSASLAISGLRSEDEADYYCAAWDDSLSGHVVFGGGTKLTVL	0.0883

Which value of Response has been reported for Ab 38 scFv-Fc (scFv, V domains shown) VH: QVTLKESGPTLVKPTQTLTLTCTFSGFSLTTSGVSVGWIRQPPGKALEWLALIHWDDDKRYSPSLRSRLTITRDTSKNQVVLTVTDMDPADTGTYYCASFIMTVYAEYFEDWGQGTLVTVSS VL: EIVLTQSPATLSVSPGERATLSCRASQSVSSNLAWYQQKPGQAPRLLMYDVSTRATGIPARFSGSGSGTEFSLTISSLQSEDFAVYYCQQRGAWPLTFGGGTKVEIK in the records?
0.234
